# MEASURED TARGET: LPA/S1P GPCR of interest (Homo sapiens, UniProt Q92633)
# Sequence (Q92633 whole entry): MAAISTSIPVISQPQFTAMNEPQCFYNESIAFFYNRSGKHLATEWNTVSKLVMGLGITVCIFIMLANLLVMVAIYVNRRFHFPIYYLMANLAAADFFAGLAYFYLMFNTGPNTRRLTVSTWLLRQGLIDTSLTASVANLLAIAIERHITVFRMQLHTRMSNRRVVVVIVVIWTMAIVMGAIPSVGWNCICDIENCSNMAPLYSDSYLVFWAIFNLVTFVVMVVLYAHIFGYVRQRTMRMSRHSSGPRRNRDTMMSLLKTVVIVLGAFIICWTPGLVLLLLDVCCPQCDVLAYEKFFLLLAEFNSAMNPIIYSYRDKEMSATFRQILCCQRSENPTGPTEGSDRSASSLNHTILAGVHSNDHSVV
# ASSAY PROTOCOL: Beta-Arrestin based assay (PathHunter)
pEC50: −log10 of the molar value.
MEASURED QUANTITY: pEC50

COMPOUND	MEASURED TARGET	pEC50
C[C@@H](OC(=O)Nc1c(-c2cc3sc(-c4ccc(-c5nnc(CC(=O)O)o5)cc4)cc3s2)cnn1C)c1ccccc1	LPA/S1P GPCR of interest (Homo sapiens, UniProt Q92633)	< 6.30
C[C@@H](OC(=O)Nc1c(-c2cc3sc(-c4ccc(Oc5ccccc5C(=O)O)cc4)cc3s2)cnn1C)c1ccccc1	LPA/S1P GPCR of interest (Homo sapiens, UniProt Q92633)	> 7.30
Cc1noc(-c2ccc(-c3ccc(Oc4ccccc4C(=O)O)nn3)cc2)c1NC(=O)O[C@H](C)c1ccccc1	LPA/S1P GPCR of interest (Homo sapiens, UniProt Q92633)	6.30 to 7.30
Cc1noc(-c2ccc3c(c2)CCCc2cc(CC(=O)O)ccc2-3)c1NC(=O)O[C@H](C)c1ccccc1	LPA/S1P GPCR of interest (Homo sapiens, UniProt Q92633)	> 7.30

pEC50 measured on C[C@@H](OC(=O)Nc1c(-c2cc3sc(-c4cnc(C5(C(=O)O)CC5)s4)cc3s2)nnn1C)c1ccccc1 = 6.30 to 7.30

pEC50 measured on C[C@@H](OC(=O)Nc1c(-c2ccc(-c3ccc(Oc4ccccc4C(=O)O)cc3)cc2)cnn1C)c1ccccc1 = > 7.30

pEC50 measured on Cc1cc(CC(=O)O)c(F)cc1-c1cc2sc(-c3snc(C)c3NC(=O)O[C@H](C)c3ccccc3)cc2s1 = < 6.30

pEC50 measured on Cc1nsc(-c2cc3sc(-c4cnc(C5(C(=O)O)CC5)c(F)c4)cc3s2)c1NC(=O)O[C@H](C)c1ccccc1 = > 7.30

pEC50 measured on Cc1noc(-c2ccc(-c3ccc(OC4(C(=O)O)CCC4)cc3)cc2)c1NC(=O)O[C@H](C)c1ccccc1 = > 7.30

pEC50 measured on C[C@@H](OC(=O)Nc1c(C#Cc2cc3sc(C4(c5nn[nH]n5)CC4)cc3s2)cnn1C)c1ccccc1 = > 7.30

pEC50 measured on C[C@@H](OC(=O)Nc1c(-c2cc3sc(-c4ccc(C5(C(=O)O)CC5)cc4C(F)(F)F)cc3s2)nnn1C)c1ccccc1 = 6.30 to 7.30

pEC50 measured on C[C@@H](OC(=O)Nc1c(-c2cc3sc(-c4ccc(CC(=O)O)cc4)cc3s2)cnn1C)c1ccccc1 = 6.30 to 7.30

* * *

Each item that follows carries a reported EC50.
# MEASURED TARGET: LPA/S1P GPCR of interest (Homo sapiens)
# ASSAY PROTOCOL: Beta-Arrestin based assay (PathHunter)
# Experimental: CMV promoter based DNA constructs expressing a fusion of the LPA/S1P GPCR of interest and ProLink™ tag were used to transfect EA Parental™ CHO cells (DiscoverX, Fremont, Calif.) using a FuGENE® transfection kit (Roche). Beta-Arrestin based assays were conducted 24-48 hrs post transfection using PathHunter® assay kits (DiscoverX, Fremont, Calif.). […] End point luminescence data were plotted and fit to a 4 parameter logistic function to obtain IC50 values. […]

Observe how each entry below is paired with its result.
COMPOUND	EC50
CCOc1cc(CC(=O)O)ccc1-c1cc2sc(-c3snc(C)c3NC(=O)O[C@H](C)c3ccccc3)cc2s1 [IT192]	> 0.5 µM
CCOc1cc(CC(=O)O)ccc1-c1cc2sc(-c3nnn(C)c3NC(=O)O[C@H](C)c3ccccc3)cc2s1 [IT191]	> 0.5 µM
Cc1noc(-c2ccc(-c3ccc(OC(C)C(=O)O)cc3)cc2)c1NC(=O)O[C@H](C)c1ccccc1 (single isomer, unassigned) [IT256]	< 0.05 µM
COc1cc(CC(=O)O)ccc1-c1cc2sc(-c3cnn(C)c3NC(=O)O[C@H](C)c3ccccc3)cc2s1 [IT162]	> 0.5 µM
C[C@@H](OC(=O)Nc1c(-c2ccc(-c3cc(F)c(Oc4ccsc4C(=O)O)c(F)c3)cc2)cnn1C)c1ccccc1 [IT465]	< 0.05 µM

Would you kindly look at the next entry?
EC50 measured on Cc1nsc(-c2cc3sc(-c4ccc(CC(=O)O)c(F)c4)cc3s2)c1NC(=O)O[C@H](C)c1ccccc1 [IT294] = 0.05 to 0.5 µM
